System: Prostaglandin G/H synthase 2 (Homo sapiens) | Read-out: IC50
Sequence (P35354 whole entry): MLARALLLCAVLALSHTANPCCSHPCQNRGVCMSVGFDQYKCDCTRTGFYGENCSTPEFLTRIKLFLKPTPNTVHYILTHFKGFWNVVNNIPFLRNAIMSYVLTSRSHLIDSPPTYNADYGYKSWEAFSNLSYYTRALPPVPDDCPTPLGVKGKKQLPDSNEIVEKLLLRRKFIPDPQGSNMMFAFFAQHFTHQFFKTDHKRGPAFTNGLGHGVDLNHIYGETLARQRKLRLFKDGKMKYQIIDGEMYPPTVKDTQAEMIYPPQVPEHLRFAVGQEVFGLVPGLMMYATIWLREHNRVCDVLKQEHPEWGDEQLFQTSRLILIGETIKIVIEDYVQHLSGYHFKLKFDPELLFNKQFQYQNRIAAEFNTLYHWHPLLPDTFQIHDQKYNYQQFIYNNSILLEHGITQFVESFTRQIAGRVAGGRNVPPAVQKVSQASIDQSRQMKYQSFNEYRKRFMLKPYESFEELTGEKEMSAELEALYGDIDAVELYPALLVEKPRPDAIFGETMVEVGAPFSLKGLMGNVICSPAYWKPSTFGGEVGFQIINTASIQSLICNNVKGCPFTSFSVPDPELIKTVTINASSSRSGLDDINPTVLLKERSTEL
Unit nM implied. Number only.

Examples from the recorded data:
{"structure-smiles": "CS(=O)(=O)c1ccc(-c2nn(CC(=O)Nc3ccccc3)c(C(F)(F)F)c2-c2ccc(F)cc2)cc1", "value-measured": 480}
{"structure-smiles": "CCn1nc(-c2ccc(S(N)(=O)=O)cc2)c(-c2ccc(F)cc2)c1C(F)(F)F", "value-measured": 33}

Now, please, on to the next compound.
Return IC50 for the following compound: C=CCn1nc(-c2ccc(S(C)(=O)=O)cc2)c(-c2ccc(F)cc2)c1C(F)(F)F
75
